# reported SDR No ATP; entries follow
target: FLuc-C-NLuc (firefly luciferase) (Photinus pyralis, UniProt P08659, form not given/L550V); assay: SDR assay, FLuc-C-NLuc; details: 1 nM FLuc-C-NLuc; normalized activity; Log [Compound], M -7.82
Sequence (P08659 2-550 L550V, form open): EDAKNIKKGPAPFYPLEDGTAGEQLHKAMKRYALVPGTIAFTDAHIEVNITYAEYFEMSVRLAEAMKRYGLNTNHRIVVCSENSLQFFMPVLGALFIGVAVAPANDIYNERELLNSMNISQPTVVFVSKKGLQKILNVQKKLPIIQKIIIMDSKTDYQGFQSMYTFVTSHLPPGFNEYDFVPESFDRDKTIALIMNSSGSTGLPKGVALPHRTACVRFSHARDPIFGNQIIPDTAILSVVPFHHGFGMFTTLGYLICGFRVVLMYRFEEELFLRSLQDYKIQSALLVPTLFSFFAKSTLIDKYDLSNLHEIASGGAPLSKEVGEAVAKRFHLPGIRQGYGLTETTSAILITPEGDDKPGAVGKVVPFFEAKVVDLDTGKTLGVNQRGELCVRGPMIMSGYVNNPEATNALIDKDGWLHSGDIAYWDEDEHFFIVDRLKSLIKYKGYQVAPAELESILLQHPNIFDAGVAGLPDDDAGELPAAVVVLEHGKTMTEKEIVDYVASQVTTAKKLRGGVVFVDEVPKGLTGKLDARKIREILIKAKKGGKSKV

| compound | SDR No ATP |
| --- | --- |
| CC(CNC(=O)C1CCN(C(=O)c2ncn3c2COC(c2ccccc2)C3)CC1)c1ccccc1 (centres unmarked) | -1.8 |
| Fc1ccc(-c2cn3cc(Cc4ccccc4)sc3n2)cc1 | 7.3 |
| Cc1ccc(-n2ncc3c(N4CCCCCC4)ncnc32)cc1 | -2.1 |
| CC1CCCN(c2ncnc3c2cnn3-c2ccccc2)C1 (centres unmarked) | 3.0 |
| COc1ccc(-c2nc(-c3ccc(C(=O)O)cc3)no2)cc1 | 6.1 |
| O=C(O)c1cccc2c1CCN2C(=O)Nc1ccc(F)cc1 | 11.3 |
| O=C(O)CCSc1nnc(-c2ccc(Cl)cc2Cl)o1 | 3.0 |
| CNC(=O)c1cccc2c1CCN2C(=O)Nc1ccc(C)cc1 | 0.224 |

====

molecular target: FLuc-C-HiBiT (firefly luciferase) (Photinus pyralis, UniProt P08659, form not given/L550V); test: SDR assay, FLuc-C-HiBiT; conditions: 10 nM FLuc-C-HiBiT; normalized activity; Log [Compound], M -4.48
Sequence (P08659 2-550 L550V, form open): as above

| compound | system.tested | SDR + 10 mM ATP |
| --- | --- | --- |
| O=C(O)c1cccc2c1CCN2C(=O)Nc1ccc(F)cc1 | FLuc-C-HiBiT (firefly luciferase) (Photinus pyralis, UniProt P08659, form not given/L550V) | 127.9 |
| Cc1ccc(-n2ncc3c(N4CCCCCC4)ncnc32)cc1 | FLuc-C-HiBiT (firefly luciferase) (Photinus pyralis, UniProt P08659, form not given/L550V) | 74.2 |
| CC(CNC(=O)C1CCN(C(=O)c2ncn3c2COC(c2ccccc2)C3)CC1)c1ccccc1 (stereo not drawn) | FLuc-C-HiBiT (firefly luciferase) (Photinus pyralis, UniProt P08659, form not given/L550V) | 68.6 |

====

Biological target: ABL1-N-HiBiT kinase domain (Homo sapiens, UniProt P00519)
Sequence (P00519 233-500): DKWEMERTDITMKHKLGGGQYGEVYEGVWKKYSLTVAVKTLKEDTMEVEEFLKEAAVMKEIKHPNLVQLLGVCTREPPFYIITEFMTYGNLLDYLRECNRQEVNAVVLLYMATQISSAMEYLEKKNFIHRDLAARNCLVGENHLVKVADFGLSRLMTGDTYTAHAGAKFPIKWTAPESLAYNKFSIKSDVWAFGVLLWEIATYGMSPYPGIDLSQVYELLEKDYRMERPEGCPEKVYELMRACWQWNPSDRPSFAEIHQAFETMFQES
Assay: SDR assay, ABL1-N-HiBiT
Details: ABL1-N-HiBiT qHTS; average maximal SDR response
Structures can show the parent of a compound that is named as a salt.
# reported SDR Ave Max Response; entries follow
measure: SDR Ave Max Response

| molecule | measure | reported.result |
| --- | --- | --- |
| Cc1n[nH]c2ccc(-c3cncc(OC[C@@H](N)Cc4c[nH]c5ccccc45)c3)cc12 [A-443654] | SDR Ave Max Response | -27.36 |
| O=C(NOCC(O)CO)c1cc(Br)c(F)c(F)c1Nc1ccc(I)cc1F (stereo not shown) [PD-318088] | SDR Ave Max Response | -2.26 |
| Cc1ccc(NC(=O)N2CCN(c3nc(N)nc4sc(-c5cccnc5)nc34)CC2)cc1 [PI4KIII beta inhibitor 3] | SDR Ave Max Response | 18.89 |
| CNC(=O)c1ccccc1Nc1nc(Nc2ccc(N3CCOCC3)cc2OC)ncc1Cl [NVP-TAE226] | SDR Ave Max Response | 60.77 |
| Cn1sc(=O)n(Cc2ccccc2)c1=O [TDZD 8] | SDR Ave Max Response | -3.85 |
| C/C(O)=C(\C#N)C(=O)Nc1cc(Br)ccc1Br [LFM-A13] | SDR Ave Max Response | -82.68 |
| COc1ccccc1-c1c[nH]c2ncc(-c3cncc(C(=O)N(C)C)c3)cc12 [PPY A] | SDR Ave Max Response | 88.01 |
| O=C(c1cccc(Cl)c1F)N1CCN(Cc2cccc(Nc3nccs3)n2)CC1 [MK-8745] | SDR Ave Max Response | 59.57 |
| C#Cc1cccc(Nc2ncnc3cc4c(cc23)OCCOCCOCCO4)c1 [Icotinib HCl] | SDR Ave Max Response | 74.52 |
| C=CC(=O)N1CCC[C@@H](n2nc(-c3cccc(C(=O)Nc4ccc(C(C)C)c(C)c4)c3)c3c(N)ncnc32)C1 [PF 06465469] | SDR Ave Max Response | 61.22 |
| c1cc(-c2cc(C3CCNCC3)[nH]n2)ccn1 [ETP 45835 2HCl] | SDR Ave Max Response | -32.09 |
| Cc1cc(F)ccc1-c1nc(NCCNC(=N)NC#N)nc2c1ccc(=O)n2-c1c(F)cccc1F [SB 706504] | SDR Ave Max Response | 3.05 |
| O=C(O)[C@]1(Cc2cccc(Nc3nccs3)n2)CC[C@@H](Oc2cccc(Cl)c2F)CC1 [MK-5108 (VX-689)] | SDR Ave Max Response | 98.02 |
| CO[C@H]1/C=C/O[C@@]2(C)Oc3c(C)c(O)c4c(O)c(c(/C=N\N5CCN(C6CCCC6)CC5)c(O)c4c3C2=O)NC(=O)C(C)=C/C=C/[C@H](C)[C@H](O)[C@@H](C)[C@@H](O)[C@@H](C)[C@H](OC(C)=O)[C@@H]1C [Rifapentin] | SDR Ave Max Response | -34.67 |
| CCN1/C(=C/C(C)=O)Sc2ccc(OC)cc21 [TG003] | SDR Ave Max Response | 9.57 |
| Cc1ccc(C(=O)Nc2ccc(Oc3cc4cnn(C)c4cc3-c3cn[nH]c3)c(F)c2)c(=O)n1-c1ccc(F)cc1 [Merestinib] | SDR Ave Max Response | 22.76 |
